Target: Gal(a1-3)Gal(b1-4)GlcNAc(b1-3)GalNAc
Assay: glycan array binding signal (z-score within array); higher = stronger binding
Settings: glycan notation: IUPAC condensed, linker removed
Many of the other results were omitted from the sample, so the strongest signals are more common in it than they were.
Quick reference: glycan array binding signal (z-score) of the listed items.
Answer with the value's number alone.

{"binder": "LgFlo1 (Saccharomyces pastorianus), B3IUA8 (protein) SGSTQACLPVGSRKNGMNVNFYKYSLQDSTTYSDPQYMAYKYSDTKKLGSVSGQTHLSIYYGPNTAFWNTASWSSDLFGFYTTPTNVTVEMTGYFLPPQTGSYTFKFATVDDSAILSVGGSIAFECCAQEQPPITSTDFTINGIKPWDAATPTDIKGSTYMYAGYYYPIKIVYSNAKALARLPVSVVLPDGTEVNDDFEGYVYSFDDDLSQSNCTIPDPSKHTTS", "glycan array binding signal (z-score)": -0.146}
{"binder": "CFEM-PPm (Pichia pastoris), F2QPV1 (protein) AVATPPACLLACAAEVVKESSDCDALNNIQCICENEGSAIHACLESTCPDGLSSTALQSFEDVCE", "glycan array binding signal (z-score)": -0.284}

Asked: I'd like to know its glycan array binding signal (z-score). The binder in question is BTL (Bryothamnion triquetrum) (protein) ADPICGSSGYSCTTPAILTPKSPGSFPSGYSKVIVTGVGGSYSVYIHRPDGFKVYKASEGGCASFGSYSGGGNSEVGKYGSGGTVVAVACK
Given back: -0.244

Asked: I'd like to know its glycan array binding signal (z-score). The binder in question is Clrb (Mus musculus) (protein) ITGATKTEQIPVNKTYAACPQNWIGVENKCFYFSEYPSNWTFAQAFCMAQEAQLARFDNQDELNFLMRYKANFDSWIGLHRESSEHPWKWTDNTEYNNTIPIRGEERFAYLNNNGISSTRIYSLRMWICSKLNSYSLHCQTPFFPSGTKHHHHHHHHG
Given back: -0.505

Asked: I'd like to know its glycan array binding signal (z-score). The binder in question is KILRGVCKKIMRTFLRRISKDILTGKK [NK2 (Sus scrofa)]
Given back: 0.826
